- System: Brain
- measurement.description: Drug level in brain of PDAPP (V717F) transgenic mouse at 100 mg/kg, sc
- Type: ADME, organism-based
- test.parameters: in vivo, read-out: Drug uptake
property.label: concentration (nM)

compound | concentration, nM
NC1=NC2CCC(NC(=O)c3cccc(Cl)c3)CC2CS1 (configuration not stated) | 750
NC1=N[C@]23CC[C@H](NC(=O)c4cccc(Cl)c4)C[C@@H]2[C@@H](COC3)S1 | 610

----------
- measurement.description: Dissociation constant, pKa of the compound
- Format: physicochemical
property.label: pKa

molecule | pKa
NC1=NC23CCC(NC(=O)c4cccc(Cl)c4)CC2(COC3)CS1 (racemic) | 8.2
Cl.NC1=NC2CCC(NC(=O)c3cccc(Cl)c3)CC2CS1 (stereo not drawn) | 9.7
Cl.NC1=N[C@]23CC[C@H](NC(=O)c4cccc(Cl)c4)C[C@@H]2[C@@H](COC3)S1 | 9

----------
- System: P-gp
- measurement.description: Efflux ratio in P-gp expressing MDCK cells
- Format: ADME, cell-based, Canis lupus familiaris
- test.parameters: dog, MDCK-MDR1
property.label: efflux ratio

molecule | assay.system | efflux ratio
Cl.NC1=N[C@]23CC[C@H](NC(=O)c4cccc(Cl)c4)C[C@@H]2[C@@H](COC3)S1 | P-gp | 8.5

1: Cl.NC1=NC2CCC(NC(=O)c3cccc(Cl)c3)CC2CS1 (stereo not drawn)
2: NC1=NC2CCC(OC(=O)c3cccc(Cl)c3)CC2CS1.O=C(O)C(F)(F)F (stereo not drawn)
When the recorded efflux ratio values are compared, which is smaller: that of 1 or that of 2 ? To answer, give the label that identifies your chosen option.
2

----------
- Test system: P-gp
- measurement.description: Permeability in P-gp expressing MDCK cells
- Type: ADME, cell-based, Canis lupus familiaris
- test.parameters: dog, MDCK-MDR1; read-out: permeability
property.label: Papp (×10⁻⁶ cm/s)

molecule | property.label | number
Cl.NC1=NC2CCC(NC(=O)c3cccc(Cl)c3)CC2CS1 (stereo not drawn) | Papp | 2.9

A: Cl.NC1=N[C@]23CC[C@H](NC(=O)c4cccc(Cl)c4)C[C@@H]2[C@@H](COC3)S1
B: NC1=NC2CCC(OC(=O)c3cccc(Cl)c3)CC2CS1.O=C(O)C(F)(F)F (stereo not drawn)
Returns: the label, A or B , whose recorded Papp is the lower number. Bench note: the answer is the label of the chosen record.
A
(A: 2.2 ×10⁻⁶ cm/s, B: 7.2 ×10⁻⁶ cm/s)
